- Assay target: GST-Hu-p50 (Homo sapiens, UniProt P19838 7-356)
- Sequence (P19838 7-356): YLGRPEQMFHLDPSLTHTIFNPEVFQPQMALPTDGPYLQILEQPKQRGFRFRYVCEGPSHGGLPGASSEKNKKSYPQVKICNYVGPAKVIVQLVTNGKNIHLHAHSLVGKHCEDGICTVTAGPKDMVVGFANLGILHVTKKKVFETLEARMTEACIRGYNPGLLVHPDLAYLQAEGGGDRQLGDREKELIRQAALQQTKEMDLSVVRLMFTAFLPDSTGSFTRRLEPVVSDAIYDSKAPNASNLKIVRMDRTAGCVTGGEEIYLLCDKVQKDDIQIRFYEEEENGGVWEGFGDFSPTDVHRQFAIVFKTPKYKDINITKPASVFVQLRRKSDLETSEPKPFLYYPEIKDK
- Protocol details: protein-binding microarray (PBM); PBM: ~300 nM protein, 6 mM HEPES pH 7.8, 80 mM KCl, 0.5 mM EDTA, 0.5 mM EGTA, 6% glycerol, 35 ng/ul poly-dIdC, 1% milk, 1 h, room temperature; Ap Aiptasia and Nv Nematostella (sea anemones) / Co Capsaspora / Aq Amphimedon (sponge) / Dm Drosophila / Hu human; RHD is the Rel homology domain; high values mean tight binding
- Condition summary: dsDNA, one strand shown
Test readout: binding signal
Answer with the number, then the unit.

Query: Requested field: binding signal. Item: CCGATTAACATCACAACACCCCCTGATGTTAATCGGGTCTTGATTCGCTTGACGCTGCTG
Reply: 4.62 z-score

Query: Requested field: binding signal. Item: CCGATTAACATCAGACTTCCCCATGATGTTAATCGGGTCTTGATTCGCTTGACGCTGCTG
Reply: 4.73 z-score

Query: Requested field: binding signal. Item: CCGATTAACATCACACCCCCCCCTGATGTTAATCGGGTCTTGATTCGCTTGACGCTGCTG
Reply: 3.76 z-score

Query: Requested field: binding signal. Item: CCGATTAACATCAATAAAATTCCTGATGTTAATCGGGTCTTGATTCGCTTGACGCTGCTG
Reply: 1.02 z-score

Query: Requested field: binding signal. Item: CCGATTAACATCAAATCACCCCCTGATGTTAATCGGGTCTTGATTCGCTTGACGCTGCTG
Reply: 4.62 z-score

Query: Requested field: binding signal. Item: CCGATTAACATCAGGAACCCCCATGATGTTAATCGGGTCTTGATTCGCTTGACGCTGCTG
Reply: 5.23 z-score

Query: Requested field: binding signal. Item: CCGATTAACATCAGGGAAAACCATGATGTTAATCGGGTCTTGATTCGCTTGACGCTGCTG
Reply: 4.01 z-score

Query: Requested field: binding signal. Item: CCGATTAACATCAGGGAATGTACTGATGTTAATCGGGTCTTGATTCGCTTGACGCTGCTG
Reply: 2.72 z-score

Query: Requested field: binding signal. Item: CCGATTAACATCAGGGGGTTACATGATGTTAATCGGGTCTTGATTCGCTTGACGCTGCTG
Reply: 5.16 z-score
